Where these numbers come from: paper PMC368434

pIC50: −log10 of the molar value.
pig gastric microsomal H,K-ATPase (Sus scrofa, UniProt P19156) measurements of pIC50, listed per entry.
Sequence (P19156 2-1034 limits assumed): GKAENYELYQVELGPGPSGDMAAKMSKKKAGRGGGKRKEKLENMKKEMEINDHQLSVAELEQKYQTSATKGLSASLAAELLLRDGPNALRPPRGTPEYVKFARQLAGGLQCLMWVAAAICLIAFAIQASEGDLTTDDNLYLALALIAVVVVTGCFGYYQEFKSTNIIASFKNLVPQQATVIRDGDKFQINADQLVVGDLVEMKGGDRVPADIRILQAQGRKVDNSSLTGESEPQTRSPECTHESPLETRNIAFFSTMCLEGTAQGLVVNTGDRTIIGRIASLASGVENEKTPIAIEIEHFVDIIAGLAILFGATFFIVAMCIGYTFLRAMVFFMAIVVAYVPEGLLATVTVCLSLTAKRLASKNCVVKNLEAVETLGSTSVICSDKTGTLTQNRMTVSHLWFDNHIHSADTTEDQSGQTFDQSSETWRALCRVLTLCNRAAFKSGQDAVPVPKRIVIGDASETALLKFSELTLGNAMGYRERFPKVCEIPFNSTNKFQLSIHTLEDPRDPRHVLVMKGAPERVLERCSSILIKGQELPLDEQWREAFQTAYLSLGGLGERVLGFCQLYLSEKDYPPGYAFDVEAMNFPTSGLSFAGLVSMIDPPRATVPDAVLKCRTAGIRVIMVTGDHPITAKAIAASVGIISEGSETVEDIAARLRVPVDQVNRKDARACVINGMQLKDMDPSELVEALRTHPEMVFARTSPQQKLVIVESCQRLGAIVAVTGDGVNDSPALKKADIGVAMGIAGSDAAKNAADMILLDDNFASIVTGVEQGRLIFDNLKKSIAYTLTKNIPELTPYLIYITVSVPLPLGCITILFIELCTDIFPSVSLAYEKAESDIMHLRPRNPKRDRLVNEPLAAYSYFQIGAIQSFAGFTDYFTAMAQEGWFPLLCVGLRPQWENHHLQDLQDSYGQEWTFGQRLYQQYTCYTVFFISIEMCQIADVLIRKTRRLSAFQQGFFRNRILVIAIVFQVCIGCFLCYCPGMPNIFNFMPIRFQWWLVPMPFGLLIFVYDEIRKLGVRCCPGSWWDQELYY
Sequence (P18434 whole entry partner): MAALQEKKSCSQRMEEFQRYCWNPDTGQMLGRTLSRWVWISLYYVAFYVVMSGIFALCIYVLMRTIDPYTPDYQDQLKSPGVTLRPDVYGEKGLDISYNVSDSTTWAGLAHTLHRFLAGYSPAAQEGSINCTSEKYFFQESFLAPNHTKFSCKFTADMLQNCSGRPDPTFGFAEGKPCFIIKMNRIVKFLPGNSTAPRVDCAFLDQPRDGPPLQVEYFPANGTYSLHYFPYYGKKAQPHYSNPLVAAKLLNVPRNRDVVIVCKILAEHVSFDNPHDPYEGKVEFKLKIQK
reported.endpoint: pIC50

1. CC1(C)Cc2c(-c3ccccc3)c(-c3ccc(Cl)cc3)c(CC(=O)O)n2C1    4.79
2. CCCCC/C=C\C/C=C\C/C=C\C/C=C\CCCC(=O)O    4.78
3. CCCCC[C@H](O)/C=C/[C@H]1[C@H](O)CC(=O)[C@@H]1C/C=C\CCCC(=O)O [PGE2, prostaglandin E2]    4.82
